- Target or system: T. cruzi CYP51 (Trypanosoma cruzi, UniProt Q7Z1V1)
- Construct: had the first 21 residues upstream of K22 replaced with the fragment MAKKKKK; His6 (C); made in house
- Sequence (Q7Z1V1 15-481, looked up, natural form): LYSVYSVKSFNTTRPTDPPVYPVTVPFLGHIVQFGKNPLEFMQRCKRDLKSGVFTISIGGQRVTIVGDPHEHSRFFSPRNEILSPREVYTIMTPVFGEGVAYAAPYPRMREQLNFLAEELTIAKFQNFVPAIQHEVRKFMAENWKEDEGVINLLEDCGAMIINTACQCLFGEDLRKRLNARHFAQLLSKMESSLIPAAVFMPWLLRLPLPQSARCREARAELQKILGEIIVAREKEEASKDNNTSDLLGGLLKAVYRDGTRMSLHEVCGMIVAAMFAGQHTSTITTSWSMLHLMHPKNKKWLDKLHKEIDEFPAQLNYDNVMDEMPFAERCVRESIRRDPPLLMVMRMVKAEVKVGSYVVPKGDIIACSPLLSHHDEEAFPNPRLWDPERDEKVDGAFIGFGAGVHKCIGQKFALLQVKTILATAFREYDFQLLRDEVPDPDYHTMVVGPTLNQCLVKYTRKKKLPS
- Assay method text: HTS spectral-mode binding screen, type II difference spectra scored 0-5
- Assay setup: type II difference spectra scored 0-5; second highest rated hit compound cluster
Below, each entry is listed with its recorded HTS binding score.
# output: bare number, no unit

The examples below pair each entry with its known result.
                                   compound     endpoint_label  quantitative_readout
0  CCOC(=O)C1=C(N)Oc2ccc3ccccc3c2C1c1cccnc1 (stereo not drawn)  HTS binding score                     2
1  N#CC1=C(N)OC2=C(C(=O)CC(c3ccccc3)C2)C1c1cccnc1 (stereo not drawn)  HTS binding score                     3
2  CCO/C(O)=C1/C(C)=NC2=C(C(=O)CC(c3ccccc3)C2)C1c1cccnc1 (stereo not drawn)  HTS binding score                     4
3  CC1(C)CC(=O)C2=C(C1)c1c(ccc3ccccc13)NC2c1cccnc1 (stereo not drawn)  HTS binding score                     5
4  COC(=O)C1=C(N)Oc2cc(C)n(CCc3ccc(OC)c(OC)c3)c(=O)c2C1c1cccnc1 (stereo not drawn)  HTS binding score                     3

Let's switch to this compound now.
Look up HTS binding score for this compound: CC1=C(C(=O)OC2CCCC2)C(c2ccncc2)C2=C(O)CC(C)(C)CC2=N1 (stereo not drawn)
4
